tested on: LAPC4 prostate cancer cells, which express the AKT1 E17K allele; test: Antiproliferative effects in LAPC4 cells (CellTiter Glo, 72 h); type: cell-based; conditions: Homo sapiens, LAPC4, 72 h, read-out: LAPC4 proliferation IC50: GeoMean IC50
pIC50: −log10 of the molar value.
quantity.kind: pIC50

[[record]]
smiles = "Nc1ncccc1-c1nc2c(C3CC3)cc(-n3cccn3)nc2n1-c1ccc2c(c1)CC[C@@H]2NC(=O)c1ccc(O)c(C=O)c1"
quantity_kind = "pIC50"
result = "5.70 to 7.00"

[[record]]
smiles = "Nc1ncccc1-c1nc2ccc(-n3ccc(F)n3)nc2n1-c1ccc2c(c1)CC[C@@H]2NC(=O)c1cc(C=O)c(O)cc1F"
quantity_kind = "pIC50"
result = "7.00 to 8.00"

[[record]]
smiles = "Cc1cc(C)c2nc(-c3cccnc3N)n(-c3ccc4c(c3)CC[C@@H]4NC(=O)c3ccc(O)c(C=O)c3)c2n1"
quantity_kind = "pIC50"
result = "5.70 to 7.00"

[[record]]
smiles = "COc1cc(-n2cccn2)nc2c1nc(-c1cccnc1N)n2-c1ccc2c(c1)CC[C@@H]2NC(=O)c1ccc(O)c(C=O)c1"
quantity_kind = "pIC50"
result = "5.70 to 7.00"

[[record]]
smiles = "Nc1ncccc1-c1nc2ccc(-c3cc4n(n3)CCOC4)nc2n1-c1ccc2c(c1)CC[C@@H]2NC(=O)c1cc(C=O)c(O)cc1F"
quantity_kind = "pIC50"
result = "7.00 to 8.00"


Consider the compound "Nc1ncccc1-c1nc2ccc(-n3cccn3)nc2n1-c1ccc2c(c1)CC[C@@H]2n1c(=O)[nH]c2cc(O)c(C=O)cc2c1=O" and give its measured pIC50.
≤ 5.70

Consider the compound "CN1CCN(c2cc(-n3cccn3)nc3c2nc(-c2cccnc2N)n3-c2ccc3c(c2)CC[C@@H]3NC(=O)c2ccc(O)c(C=O)c2)CC1" and give its measured pIC50.
5.70 to 7.00

Consider the compound "Nc1ncccc1-c1nc2ccc(NC3CC3)nc2n1-c1ccc2c(c1)CC[C@@H]2NC(=O)c1ccc(O)c(C=O)c1" and give its measured pIC50.
5.70 to 7.00

Consider the compound "COCc1cnn(-c2ccc3nc(-c4cccnc4N)n(-c4ccc5c(c4)CC[C@@H]5NC(=O)c4cc(C=O)c(O)cc4F)c3n2)c1" and give its measured pIC50.
5.70 to 7.00

Consider the compound "Nc1ncccc1-c1nc2ccc(-n3cc(F)cn3)nc2n1-c1ccc2c(c1)CC[C@@H]2NC(=O)c1ccc(O)c(C=O)c1" and give its measured pIC50.
5.70 to 7.00

Consider the compound "Nc1ncccc1-c1nc2ccc(-n3ncc4cccnc43)nc2n1-c1ccc2c(c1)CC[C@@H]2NC(=O)c1cc(C=O)c(O)c(F)c1F" and give its measured pIC50.
7.00 to 8.00

Consider the compound "Nc1ncccc1-c1nc2ccc(-c3ccn(C4COC4)n3)nc2n1-c1ccc2c(c1)CC[C@@H]2NC(=O)c1ccc(O)c(C=O)c1" and give its measured pIC50.
5.70 to 7.00

Consider the compound "Cc1cc(-n2nccn2)nc2c1nc(-c1cccnc1N)n2-c1ccc2c(c1)CC[C@@H]2NC(=O)c1cc(C=O)c(O)c(F)c1F" and give its measured pIC50.
7.00 to 8.00

====

biological target: AKT1 WT (Homo sapiens); assay: Live cell target engagement by NanoBRET competitive probe displacement, AKT1 WT; settings: transfected HEK293 cells, 2 h at 37° C., read-out: AKT1 WT IC50: GeoMean IC50
Sequence (P31749 whole entry): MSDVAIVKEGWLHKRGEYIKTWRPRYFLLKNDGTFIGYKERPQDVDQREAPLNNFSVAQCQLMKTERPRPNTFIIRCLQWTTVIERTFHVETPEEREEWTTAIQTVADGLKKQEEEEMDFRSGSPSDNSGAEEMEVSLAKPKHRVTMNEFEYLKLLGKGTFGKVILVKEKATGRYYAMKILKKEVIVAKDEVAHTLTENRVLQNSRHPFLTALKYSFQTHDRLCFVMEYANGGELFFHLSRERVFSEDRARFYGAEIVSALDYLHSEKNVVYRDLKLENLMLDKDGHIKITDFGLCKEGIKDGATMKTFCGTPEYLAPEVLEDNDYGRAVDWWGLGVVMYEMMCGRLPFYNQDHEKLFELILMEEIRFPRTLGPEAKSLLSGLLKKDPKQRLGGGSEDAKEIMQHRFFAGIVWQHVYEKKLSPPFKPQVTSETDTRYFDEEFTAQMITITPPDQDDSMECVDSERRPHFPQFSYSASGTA
quantity.kind: IC50

Use these answered entries as a reference point.
[[record]]
compound = "Nc1ncccc1-c1nc2ccc(-n3cccn3)nc2n1-c1ccc2c(c1)CC[C@@H]2NC(=O)c1cc(C=O)c(O)c2scnc12 [Example 242]"
result = "0.1 to 2 µM"

[[record]]
compound = "Nc1ncccc1-c1nc2ccc(-c3ccccc3)nc2n1-c1ccc2c(c1)CC[C@H]2NCCc1ccc(C=O)c(O)c1 [Example 3]"
result = "0.1 to 2 µM"


Lab note: next compound to report on.
Consider the compound CN(C)C(=O)Nc1ccc(C(=O)N[C@H]2CCc3cc(-n4c(-c5cccnc5N)nc5ccc(-n6ccc(F)n6)nc54)ccc32)cc1C=O [Example 122] and give its measured IC50.
0.01 to 0.1 µM
